Where do these numbers come from? They come from PubChem BioAssay (NCI).

Tested on: SR leukemia
method: NCI-60 one-dose screen, 48 h
study-conditions: 10 µM unless noted
The panel holds about 83,000 compounds, 20% with a hit somewhere; the sample as a whole holds those more often. Activity calls are given as the source filed them. Rule for the calls: active = growth percent below 10; inactive = the rest.
Use one of these outcomes when replying: label 1 for active, label 0 for inactive

Cc1ccc(C(CC(=O)O)c2c(C)[nH][nH]c2=O)cc1 (stereo not given)	label 0

Dear colleague, could you share the recorded outcome for CCOC(=O)Nc1ccc(-c2nc(-c3cccc(OC)c3)c(-c3ccnc(Br)c3)[nH]2)cc1 when you have a moment?
label 1

Dear colleague, could you share the recorded outcome for CNC(C)[C@H]1CCC2C3CCC4C[C@@H](N(C)C(=O)c5ccccc5)CC[C@]4(C)C3CC[C@@]21C (stereo not given in full) when you have a moment?
label 0

Dear colleague, could you share the recorded outcome for CCc1cccc2c1S/C(=C/c1ccc(Cl)cc1)C2=O when you have a moment?
label 0

Dear colleague, could you share the recorded outcome for NCCOc1ncccc1/C=C1\c2ccccc2-c2ccc(C(F)F)cc21 when you have a moment?
label 1

Dear colleague, could you share the recorded outcome for CCCCCCNC(=O)Oc1ccc(/C(=C(\C)c2ccc(Cl)cc2)c2ccc(OCCN3CCCCC3)cc2)cc1 when you have a moment?
label 1

Dear colleague, could you share the recorded outcome for O=c1c2cccc(Cl)c2sc2c(NCCCNCCO)nc3ccccc3c12 when you have a moment?
label 1

Dear colleague, could you share the recorded outcome for COc1cc(C2CC(c3cccc(Br)c3)=NN2C(C)=O)cc(OC)c1OC (stereo not given) when you have a moment?
label 0

Dear colleague, could you share the recorded outcome for COc1cc(/C=N/NC(=O)c2ccc(C)nc2)cc(OC)c1OC when you have a moment?
label 0

Dear colleague, could you share the recorded outcome for COc1cccc(Cc2nn3cc(-c4ccccc4)nc3s2)c1 when you have a moment?
label 0

====

Field: growth. Provide a value for each of the molecules that follow.
System: TK-10 renal
method: NCI-60 one-dose screen, 48 h (100 = growth as untreated, 0 = no growth, -100 = all killed)
study-conditions: 10 µM unless noted
This is part of a sample that, as a whole, favours compounds with a hit. Of some 83,000 tested, about 20% had one in any assay.
One number for each entry, in %.

COc1c(B(O)O)cc(C)cc1-c1nc2ccc3[nH]ncc3c2c2c1CCCC2	19.7
C[N+]1=C(/C=C/c2ccc(O)c3ncccc23)C(C)(C)c2ccccc21	97.1
CC/C=C\C[C@@H]1C/C=C2/C(=O)C=C[C@H]2C/C=C\CCCC(=O)O1	-42.5

State recorded growth for all listed molecules.
1. O=C(CSc1nc2ccccc2[nH]1)Nc1cccc(Cl)c1
2. COc1ccc(C2CC(c3ccc(Nc4ccnc5cc(Cl)ccc45)cc3)=NN2C=O)cc1 (stereo not given)

1: 109; 2: 91.2

====

System: HCC-2998 colon
method: NCI-60 one-dose screen, 48 h
study-conditions: 10 µM unless noted
This is part of a sample that, as a whole, favours compounds with a hit. Of some 83,000 tested, about 20% had one in any assay. Calls of active or inactive are those of the source. Rule for the calls: active = growth percent below 10; inactive = the rest.
Use one of these outcomes when replying: active, inactive

CCN1C(=O)N(CC)C2Nn3c(s/c(=C4\C(=O)N(CCC(C)C)c5ccccc54)c3=O)=NC21 (stereo not drawn)	inactive

Dear colleague, could you share the recorded outcome for CCC(=O)Nc1ccc(-c2nc(-c3cccc(OC)c3)c(-c3ccnc(Br)c3)[nH]2)cc1 when you have a moment?
inactive

====

Test system: U251 CNS
method: NCI-60 one-dose screen, 48 h (100 = growth as untreated, 0 = no growth, -100 = all killed)
study-conditions: 10 µM unless noted
About 83,000 compounds went through this panel and 20% of them were active in at least one assay; those are over-represented in the sample as a whole.
readout-kind: growth (%)
Numbers only, in %.

N[C@@H](Cc1ccccc1)[C@@H](O)C(=O)NCc1ccc(F)cc1	104
NC[C@@H]1O[C@H](O[C@@H]2[C@@H](CO)OC(O[C@@H]3[C@@H](O)[C@H](N)C[C@H](N)[C@H]3OC3O[C@H](CN)[C@@H](O)[C@H](O)[C@H]3N)[C@@H]2O)[C@H](N)[C@@H](O)[C@@H]1O (some centres undefined)	102
COc1ccc2nc(NC(=O)c3cccnc3Nc3ccc(S(N)(=O)=O)cc3)sc2c1	97.4

Consider now this further molecule.
Provide U251 CNS growth reading for CCOC(=O)c1cn2ncnc(Oc3ccc(NC(=O)NCCN4CCN(C)CC4)c(Cl)c3)c2c1C .
63.3

====

Field: growth. Provide a value for each of the compounds that follow.
System: HCT-15 colon
method: NCI-60 one-dose screen, 48 h (100 = growth as untreated, 0 = no growth, -100 = all killed)
study-conditions: 10 µM unless noted
Experimental: Growth inhibition of the HCT-15 human tumor cell line is measured as a screen for anti-cancer activity. Cells are grown in 96 well plates and exposed to the test compound for 48 hours. Compounds are tested at a single concentration, which is 10^-5 M for most compounds. The reported endpoint is percent growth (GI% or GIPRCNT), where numbers from 0 - 100% represent growth inhibition, and numbers from -100% - 0 represent cell death. For example, a value of 40 represents 60% growth inhibition. […]
This is part of a sample that, as a whole, favours compounds with a hit. Of some 83,000 tested, about 20% had one in any assay. Calls of active or inactive are those of the source. Rule for the calls: active = growth percent below 10; inactive = the rest.

As a guide, the following entries are already answered.
c1ccc(-c2nc3sc(-c4ccccc4)cn3n2)cc1	91.6% (inactive)
COc1c(B(O)O)cc(F)cc1-c1nc2ccc3[nH]ncc3c2c2c1CCCC2	3.63% (active)
Fc1cc(-c2nnc3n2NC(=Nc2ccc(Cl)cc2)CS3)c(Cl)cc1Cl	97.3% (inactive)
Fc1cc2c(cc1Cl)N(c1ncnc3ccc(-c4cnc5cnccn45)cc13)CC2	99.1% (inactive)
COc1cc(/C=N/NC(=O)c2ccc(C)nc2)cc(OC)c1OC	97.2% (inactive)

Consider now this further compound.
Give recorded growth. COc1ccc(C2C(C#N)=C(N)Oc3c2sc2c(C)cccc32)cc1 (stereo unspecified)
9.6% (active)

====

Test system: MDA-MB-435 melanoma
method: NCI-60 one-dose screen, 48 h (100 = growth as untreated, 0 = no growth, -100 = all killed)
study-conditions: 10 µM unless noted
About 83,000 compounds went through this panel and 20% of them were active in at least one assay; those are over-represented in the sample as a whole. Calls of active or inactive are those of the source. Rule for the calls: active = growth percent below 10; inactive = the rest.
readout-kind: growth

Nc1nc(-c2cccc3ccccc23)cc2ccccc12	-64.8% (active)

State recorded growth for all listed compounds.
1. Nc1ccc(Sc2ccc([N+](=O)[O-])c3nonc23)cc1
2. NC[C@@H]1O[C@H](O[C@@H]2[C@@H](CO)OC(O[C@@H]3[C@@H](O)[C@H](N)C[C@H](N)[C@H]3OC3O[C@H](CN)[C@@H](O)[C@H](O)[C@H]3N)[C@@H]2O)[C@H](N)[C@@H](O)[C@@H]1O (some centres undefined)

99.2% (inactive)
102% (inactive)

====

Tested on: SK-MEL-5 melanoma
method: NCI-60 one-dose screen, 48 h
study-conditions: 10 µM unless noted
Compounds without any hit were thinned out: in the full panel of roughly 83,000, 20% have a hit. Active and inactive are the calls of the source. Rule for the calls: active = growth percent below 10; inactive = the rest.
Use one of these outcomes when replying: YES (active), NO (inactive)

Illustrative cases are given below, each with its answer.
Cc1ccc(/C=C2\Oc3ccc(O)c(O)c3C2=O)cc1	NO
C=C1CC[C@@]2(C#N)[C@H]3[C@H](CC[C@@H]2C)[C@@H](C)C[C@@H](CC(C)(C)C#N)[C@H]13	NO
CCOC(=O)c1c2c(n(-c3ccc(C#N)cc3)c1-c1ccccc1)C=CCC2	NO
O=c1c2cccc(F)c2sc2c(NCCCNCCO)nc3ccccc3c12	NO
CCCCNc1nc(NN2C(=O)c3cccc4cccc(c34)C2=O)nc(-n2cnc3ccccc32)n1	NO
COc1ccc(-c2csc(NC(=O)N3CCN(c4cc5c(cc4F)c(=O)c(C(=O)O)cn5C4CC4)CC3)n2)cc1	YES

Field: next compound
Dear colleague, could you share the recorded outcome for CCOC(=O)CC1C(COC(=O)NC)OC(n2cnc3c(NC(=O)Nc4ccccc4)ncnc32)C1O[Si](C)(C)C(C)(C)C (stereo not given) when you have a moment?
NO

====

Test system: MOLT-4 leukemia
method: NCI-60 one-dose screen, 48 h (100 = growth as untreated, 0 = no growth, -100 = all killed)
study-conditions: 10 µM unless noted
Compounds without any hit were thinned out: in the full panel of roughly 83,000, 20% have a hit.
Rule: growth under 80% gives criterion not met, otherwise criterion met.

Fc1cc(-c2nnc3sc(-c4ccc(Cl)cc4Cl)nn23)c(Cl)cc1Cl	criterion met

Tell me whether growth is at least 80% here: CNC(C)[C@H]1CCC2C3CCC4C[C@@H](N(C)C(=O)c5ccccc5)CC[C@]4(C)C3CC[C@@]21C (stereo partly drawn)
criterion not met

Tell me whether growth is at least 80% here: CCCCNc1nc(NN2C(=O)c3cccc4cccc(c34)C2=O)nc(-n2cnc3ccccc32)n1
criterion not met

Tell me whether growth is at least 80% here: COc1cc(Nc2cn[nH]c2-c2ccc(Cl)cc2)cc(OC)c1OC
criterion not met

Tell me whether growth is at least 80% here: COc1ccc2[nH]c(-c3ccccc3)c(/C=C(\C#N)S(=O)(=O)c3ccccc3)c2c1
criterion not met

Tell me whether growth is at least 80% here: Cc1ccc(C(=O)NN2C(=O)CSC2c2cccc([N+](=O)[O-])c2)cn1 (stereo not drawn)
criterion met

Tell me whether growth is at least 80% here: CCCCCCCCCCCCCCCCCCOc1ccccc1CCCOP(=O)(O)OCC[N+](C)(C)C
criterion not met
